These measurements were taken from paper PMC6368601.

Target: taxol-stabilized microtubules polymerized from bovine brain tubulin dimers (bovine)
Experiment: co-sedimentation; 100 nM ISB (WT, MTBM or Δ20) with various concentrations of taxol-stabilized microtubules; BRB80, 1 mM DTT, 50 mM NaCl, 20 uM paclitaxel; 15 min at room temperature; 50% glycerol cushion, 279,000 x g; blot with anti-Borealin; apparent Kd from a one-site specific binding fit of three experiments
What Kd was measured for each of the following?
Give bare numbers, in nM.

| SUBSTANCE | Kd (nM) |
| --- | --- |
| INCENP^1-58-Survivin-Borealin complex (ISB^WT), centromere-targeting region of human CPC (from UniProt Q9NQS7 1-58; O15392 1-142; Q53HL2 1-280) | 164 |

Now take the following substance into account.
Ask: Name the recorded Kd of the substance listed here: ISB^Δ20: INCENP^1-58-Survivin-Borealin lacking the N-terminal 20 amino acids of Borealin (from UniProt Q9NQS7 1-58; O15392 1-142; Q53HL2 21-280) (complex)
Reply: 750
